test: Elevated temperature storage stability in dry form (potency loss or gain by HPLC); type: physicochemical; conditions: dry solid, 8 weeks; 45° C.
Counter-ions that a name gives are not always drawn.
Outcome measure: degraded at 1344 h (%)
Number only, in %; omit the unit.

Which degraded at 1344 h is listed for CO/N=C(\C(=O)NC1C(=O)N2C(C(=O)[O-])=C(C[N+]3(C)CCCC3)CSC12)c1csc(N)n1 (stereo not shown) [Sesquiphosphate Salt] ?
1.6

---

Consider the following compounds and their measured PERCENT LOSS (potency) readings.
test: Elevated temperature storage stability in dry form (potency loss or gain by HPLC); format: physicochemical; details: 45 Deg. C., 1 week, dry container; + = potency gain; 10080 min
Counter-ions that a name gives are not always drawn.
The reply must contain the numeric value and, after it, the unit.

# count of solved cases: 3
CO/N=C(\C(=O)NC1C(=O)N2C(C(=O)[O-])=C(C[N+]3(C)CCCC3)CSC12)c1csc(N)n1 (stereo not shown) [(H3 PO4)2 Salt]
0%
CO/N=C(\C(=O)NC1C(=O)N2C(C(=O)[O-])=C(C[N+]3(C)CCCC3)CSC12)c1csc(N)n1 (stereo not shown) [(HNO3)2 Salt]
8.8%
CO/N=C(\C(=O)NC1C(=O)N2C(C(=O)[O-])=C(C[N+]3(C)CCCC3)CSC12)c1csc(N)n1 (stereo not shown) [(HCl)2 Salt]
0%

Proceeding to the next compound to report its PERCENT LOSS (potency).
Which PERCENT LOSS (potency) is listed for CO/N=C(\C(=O)NC1C(=O)N2C(C(=O)[O-])=C(C[N+]3(C)CCCC3)CSC12)c1csc(N)n1 (stereo not shown) [HCl Salt] ?
4.8%
